Origin of measurements: patent EP4703382A1

This section presents binders with their documented pKd values.
# Target: T1, human PDL1-Fc fusion protein (human)
# T1 construct: also called human PDL1-Fc recombinant protein
# T1 sequence (chain, as listed by the source limits assumed): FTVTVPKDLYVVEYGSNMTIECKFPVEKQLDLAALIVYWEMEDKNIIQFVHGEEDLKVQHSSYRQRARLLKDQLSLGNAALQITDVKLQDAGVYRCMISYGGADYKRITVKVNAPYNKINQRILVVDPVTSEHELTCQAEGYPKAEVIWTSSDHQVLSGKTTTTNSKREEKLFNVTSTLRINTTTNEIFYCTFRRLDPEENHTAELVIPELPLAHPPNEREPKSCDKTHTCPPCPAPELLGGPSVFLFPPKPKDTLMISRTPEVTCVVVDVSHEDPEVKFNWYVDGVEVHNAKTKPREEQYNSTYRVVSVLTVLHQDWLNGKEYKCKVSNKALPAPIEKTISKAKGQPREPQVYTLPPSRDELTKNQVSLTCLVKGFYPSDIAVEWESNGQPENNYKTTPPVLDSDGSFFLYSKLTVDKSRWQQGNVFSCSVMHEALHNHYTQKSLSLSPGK
# Procedure Text: BLI (ForteBIO Octet QKe), PDL1-Fc loaded, analyte 100 nM
Expect pKd as a plain number equal to -log10 of the molar concentration.

Answered examples (2):
Binder: PDL1-1v12 (VHH, Humanized PDL1-1, His-tagged) VHH: QVQLVESGGGLVQPGGSLRLSCAASGFTVSNSAVSWARQAPGKGLEWVSLIDSNRNTVYAQSVRGRFTISRDNAKNSVYLQMNSLRAEDTAVYYCAKGIWGSTLWGQGTTVTVSS
pKd: 6.41
--
Binder: PDL1-1v2 (VHH, Humanized PDL1-1, His-tagged) VHH: QVQLVESGGGLVKPGGSLRLSCAASGFTVSNSAVSWARQAPGKGLEWVSLIDSNRNTVYAQSVRGRFTISRDNAKNSVYLQMNSLRAEDTAVYYCAKGIWGSTLWGQGTTVTVSS
pKd: 7.85

Lookup: I have this binder here, PDL1-1v17 (VHH, Humanized PDL1-1, His-tagged) VHH: QVQLVESGGGLVKPGGSLRLSCAASGFTVSNSAVSWARQAPGKGLEWVSLIDSNRNTVYAQSVRGRFTISRDNAKNSVYLQMNSLRPEDTAVYYCAKGIWGSTLWGQGTTVTVSS , and I need its recorded pKd.
Found: 7.99

Lookup: I have this binder here, PDL1-1v6 (VHH, Humanized PDL1-1, His-tagged) VHH: EVQLLESGGGLVQPGGSLRLSCAASGFTVSNSAVSWARQAPGKGLEWVSLIDSNRNTVYAQSVRGRFTISRDNSKNTVYLQMNSLKAEDTAVYYCAKGIWGSTLWGQGTTVTVSS , and I need its recorded pKd.
Found: 7.66
